System: A498 renal
MEASUREMENT_DESCRIPTION: NCI-60 one-dose screen, 48 h (100 = growth as untreated, 0 = no growth, -100 = all killed)
COND: 10 µM unless noted
This is part of a sample that, as a whole, favours compounds with a hit. Of some 83,000 tested, about 20% had one in any assay.
# True = growth below 70% (exclusive); False = growth at/above 70%

Answered examples (8):
{"MOLECULE": "CC1O[C@@H]2C[C@@](O)([C@H]1O)n1c3ccccc3c3c4c(c5c6ccccc6n2c5c31)C(=O)NC4=O (stereo not given in full)", "TESTED_SYSTEM": "A498 renal", "ASSIGNED_CATEGORY": "True"}
{"MOLECULE": "COc1ccccc1NC(=O)c1ccc(/C=C/C(=O)c2nccn2C)cc1", "TESTED_SYSTEM": "A498 renal", "ASSIGNED_CATEGORY": "True"}
{"MOLECULE": "CC(=O)N/C(=C1/OC(C(O)C(O)C(O)CO)CN1C)[P+](c1ccccc1)(c1ccccc1)c1ccccc1 (stereo not given)", "TESTED_SYSTEM": "A498 renal", "ASSIGNED_CATEGORY": "False"}
{"MOLECULE": "N#Cc1c(-c2cccc([N+](=O)[O-])c2)cc(-c2ccc(Nc3nc(Nc4ccc(F)cc4)nc(Nc4ccc(F)cc4)n3)cc2)nc1N", "TESTED_SYSTEM": "A498 renal", "ASSIGNED_CATEGORY": "False"}
{"MOLECULE": "COc1cc(N2C(=O)[C@H](c3ccccc3)C2c2ccc(SC)cc2)cc(OC)c1OC (stereo not given in full)", "TESTED_SYSTEM": "A498 renal", "ASSIGNED_CATEGORY": "True"}
{"MOLECULE": "O=C1/C(=C/c2ccccc2[N+](=O)[O-])COc2ccc(O)cc21", "TESTED_SYSTEM": "A498 renal", "ASSIGNED_CATEGORY": "False"}
{"MOLECULE": "Cc1cc(C)cc(Nc2ccc([N+](=O)[O-])c(NCCN3CCOCC3)n2)c1", "TESTED_SYSTEM": "A498 renal", "ASSIGNED_CATEGORY": "True"}
{"MOLECULE": "Cc1cccc(-n2c(C)nc3ccc(N4CCCNC4=O)cc3c2=O)c1", "TESTED_SYSTEM": "A498 renal", "ASSIGNED_CATEGORY": "False"}

Just wondering, is growth of `O=C(CSc1nnc2sc(Nc3cccc(Cl)c3)nn12)c1ccc(F)cc1` below 70%? False

Just wondering, is growth of `CN1CCN(CCCOC(=O)c2c3c(n4ccccc24)C(=O)c2ncccc2C3=O)CC1` below 70%? True

Just wondering, is growth of `CS(=O)(=O)Nc1cc(-c2ccc3ncnc(Nc4ccc5c(cnn5Cc5cccnc5)c4)c3c2)cnc1Cl` below 70%? True

Just wondering, is growth of `O=C(Cn1nnc([N+](=O)[O-])n1)c1ccccc1` below 70%? True

----------
Test system: UACC-62 melanoma
MEASUREMENT_DESCRIPTION: NCI-60 one-dose screen, 48 h (100 = growth as untreated, 0 = no growth, -100 = all killed)
COND: 10 µM unless noted
This is part of a sample that, as a whole, favours compounds with a hit. Of some 83,000 tested, about 20% had one in any assay.
# condition met = growth below 50% (exclusive); condition not met = growth at/above 50%

{"COMPOUND": "COc1ccc2c(O)c(/C=C3\\N=Nc4ccccc43)oc2c1C[C@H]1CCNC[C@H]1F", "ASSIGNED_CATEGORY": "condition met"}
{"COMPOUND": "COc1cccc(/C=C/C(=O)c2cc3c(N)c(C(=O)Nc4cccc(Cl)c4C)sc3nc2C)c1", "ASSIGNED_CATEGORY": "condition met"}
{"COMPOUND": "COc1cc(C(=O)c2c(N)ncn2-c2ccccc2)cc(OC)c1OC", "ASSIGNED_CATEGORY": "condition not met"}
{"COMPOUND": "CC(C)CCSc1nc(Nc2ccccc2)c(C#N)c(-c2ccccc2)n1", "ASSIGNED_CATEGORY": "condition not met"}

Just wondering, is growth of `CCCCCCCCn1ccc2cc(NC(=O)Cn3cc(CN4CCC(C)CC4)nn3)ccc21` below 50%? condition met

Just wondering, is growth of `CN1CCN(CCCOc2ccc3ncnc(Nc4ccc(Oc5cccc(F)c5)c(Cl)c4)c3c2)CC1` below 50%? condition met

Just wondering, is growth of `CC/C(Cc1ccccc1)=C(\c1ccc(OCCN2CCCCCC2)cc1)c1ccc(OC(=O)NCc2ccccc2)cc1` below 50%? condition not met

Just wondering, is growth of `CCOC(=O)Cn1c(=O)c2c3ccccc3n(C)c2n2nnc(-c3ccccc3)c12` below 50%? condition not met

Just wondering, is growth of `N=C(N)c1ccc(-c2ccc(-c3ccc(F)cc3)s2)s1` below 50%? condition met

Just wondering, is growth of `COc1cc2c(/C=C3\C(=O)Nc4ccccc43)c(C(=O)O)[nH]c2cc1C` below 50%? condition not met

----------
Test system: COLO 205 colon
MEASUREMENT_DESCRIPTION: NCI-60 one-dose screen, 48 h (100 = growth as untreated, 0 = no growth, -100 = all killed)
COND: 10 µM unless noted
The panel holds about 83,000 compounds, 20% with a hit somewhere; the sample as a whole holds those more often.
QUANTITY_MEASURED: growth (%)
Write down the numeric answer in % and omit the unit.

Field: example entries. Status: answers known.
{"MOLECULE": "Cn1cc(-c2nc(-c3c[nH]c4ccncc34)cs2)c2cc(Br)ccc21", "TESTED_SYSTEM": "COLO 205 colon", "UNIT_STRING": "%", "growth": -71.1}
{"MOLECULE": "COc1ccc(NC(=O)c2sc3nc(C)c(C(O)c4ccccc4)cc3c2N)cc1 (stereo unspecified)", "TESTED_SYSTEM": "COLO 205 colon", "UNIT_STRING": "%", "growth": -5.84}
{"MOLECULE": "COC(=O)C1=C(C(=O)Nc2cccnc2)C2OC1(C(Cc1ccccc1)Oc1ccccc1)C1OC21 (stereo unspecified)", "TESTED_SYSTEM": "COLO 205 colon", "UNIT_STRING": "%", "growth": -46.9}
{"MOLECULE": "Cc1ccc(Nc2nc(-c3ccc(F)cc3)c(C#N)c(=O)n2C)cc1", "TESTED_SYSTEM": "COLO 205 colon", "UNIT_STRING": "%", "growth": 66.8}
{"MOLECULE": "O=C1c2cccnc2C(=O)c2c1c(C(=O)OCCCN1CCCCC1)c1ccccn21", "TESTED_SYSTEM": "COLO 205 colon", "UNIT_STRING": "%", "growth": -79}

Result for `COc1ccc2c(c1)c(-c1cc(-c3cn(C)c4ccc(OC)cc34)on1)cn2C` , tested on COLO 205 colon, growth: 112

Result for COC(=O)C1=C(C)NC(C)=C(C(=O)OCC(C)C)C1c1ccccc1[N+](=O)[O-] (stereo unspecified) , tested on COLO 205 colon, growth: 91.1

Result for `Cn1cc(-c2csc(-c3cn(C(=O)OC(C)(C)C)c4ccccc34)n2)c2ccnc(Cl)c21` , tested on COLO 205 colon, growth: 39.8

Result for `COc1ccc(-c2cc(-c3ccc(OC)cc3)nc(NCCCNc3ccnc4cc(Cl)ccc34)n2)cc1` , tested on COLO 205 colon, growth: 2.44

Result for `Cc1c2cnccc2c(C)c2c1c1cc(C3OCCCO3)ccc1n2C` , tested on COLO 205 colon, growth: -17.6

Result for `CCc1cccc(Sc2cc(C(=O)N3Cc4ccc(OCCN(C)C)cc4C3)ccc2O)c1` , tested on COLO 205 colon, growth: 109

Result for `NC(=O)OCCn1cc(-c2nc(-c3c[nH]c4ncccc34)cs2)c2ccccc21` , tested on COLO 205 colon, growth: 4.32

Result for `CN(C)c1ccc(C(=NO)c2ccc(N(C)C)cc2)cc1` , tested on COLO 205 colon, growth: 42.8

Result for `COc1cc2c3c(n(CCCCNCCCn4c5c(c6cc(OC)c(OC)cc6c4=O)C(=O)c4cc6c(cc4-5)OCO6)c(=O)c2cc1OC)-c1cc2c(cc1C3=O)OCO2` , tested on COLO 205 colon, growth: 103

Result for `C[C@@H](CO)[C@@H]1CC[C@]2(C(=O)N3CCN(C)CC3)CC[C@]3(C)[C@H](CC[C@@H]4[C@@]5(C)CC[C@H](O)C(C)(C)[C@@H]5CC[C@]43C)[C@@H]12` , tested on COLO 205 colon, growth: 90.2

Result for `Cn1cc(/C=C2/C(=O)Nc3ccccc32)c2ccccc21` , tested on COLO 205 colon, growth: 91.7

Result for `CC1(C)CC2=C3C=C[C@@H]4[C@@]5(C)CC[C@H](O)C(C)(C)[C@@H]5CC[C@@]4(C)[C@]3(C)CC[C@@]2(C(=O)O)CC1=O` , tested on COLO 205 colon, growth: 67

Result for `COc1cc2c(cc1O)[C@@]1(C)[C@H](c3ccccc3Br)OC(=O)N1CC2` , tested on COLO 205 colon, growth: 117

Result for `NC(=O)c1c(NC(=O)c2ccc(Cl)cc2)sc2c1CCC(=O)C2` , tested on COLO 205 colon, growth: 75.9
